- test.target: Cytochrome P450 2C8 (Homo sapiens)
- Sequence (P10632 whole entry): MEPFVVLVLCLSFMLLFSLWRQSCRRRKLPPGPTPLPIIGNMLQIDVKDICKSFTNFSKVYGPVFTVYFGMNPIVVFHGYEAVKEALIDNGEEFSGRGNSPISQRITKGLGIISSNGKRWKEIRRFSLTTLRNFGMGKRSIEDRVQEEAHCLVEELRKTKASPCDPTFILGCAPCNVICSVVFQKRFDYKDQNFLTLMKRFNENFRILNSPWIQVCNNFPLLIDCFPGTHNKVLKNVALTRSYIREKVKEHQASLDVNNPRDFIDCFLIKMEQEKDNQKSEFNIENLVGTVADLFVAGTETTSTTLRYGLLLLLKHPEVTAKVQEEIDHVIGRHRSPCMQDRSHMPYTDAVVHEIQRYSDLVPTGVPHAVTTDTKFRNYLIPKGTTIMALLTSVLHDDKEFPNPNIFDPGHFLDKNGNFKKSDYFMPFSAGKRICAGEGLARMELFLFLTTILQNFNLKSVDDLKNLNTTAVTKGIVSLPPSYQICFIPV
pIC50: −log10 of the molar value.
Field: pIC50. System: Cytochrome P450 2C8 (Homo sapiens). Provenance: assorted publications.

molecular.string	lt.gt.eq	pIC50
C[C@@H](NC(=O)c1ccc(Cl)cc1)[C@H]1CC[C@@H](c2ccnc3ccc(F)cc32)CC1	=	5.86
C[C@H](CC[C@](C)(O)C(F)(F)F)[C@H]1CC[C@H]2[C@@H]3CC=C4C[C@@](C)(O)CC[C@]4(C)[C@H]3CC[C@]12C	<	5.00
CC(C)S(=O)(=O)NC[C@H]1CC[C@H](NC(=O)CN2CCc3cc(Cl)ccc32)CC1	=	5.09
O=C(O)c1cc(F)c2nc(N3CCC4(C=C(c5c(-c6ccccc6OC(F)(F)F)noc5C5CC5)C4)CC3)sc2c1	=	5.21
CC(C)(O)CC(=O)N[C@@H]1CC[C@@]2(S(=O)(=O)c3ccc(F)cc3)c3ccc(C(F)(C(F)(F)F)C(F)(F)F)nc3CC[C@@H]12	=	5.20
O=C(NCc1ncc(C(F)(F)F)cc1Cl)c1ccc2c(c1)C1(CCS(=O)(=O)CC1)[C@H](C1CC1)N2S(=O)(=O)c1ccc(F)cc1	=	6.00
O=C(Nc1ccc(Oc2ccc(F)cc2)cc1)N1CCc2ncccc2[C@@H]1c1ccc(Cl)cc1	=	6.15

###

pIC50: −log10 of the molar value.
Cytochrome P450 2C8 (Homo sapiens, UniProt P10632) pIC50, compiled from various sources.
Classify as follows. Reported pIC50 greater than or equal to 5: True. Reported pIC50 below: False.

molecular.string	class.label
COC(=O)N1C[C@@H](C)N(c2ncc3[nH]nc(-c4ccc(N5CCN(C)CC5)cc4)c3n2)[C@@H](C)C1	False
O=C(O)[C@H]1CC[C@H](C(=O)N2CC[C@](c3ccc(C(F)(C(F)(F)F)C(F)(F)F)cc3)(S(=O)(=O)c3ccc(F)cc3)C2)CC1	True
Cl.Cl.Cl.NCC#Cc1cnccc1-c1ccncc1	False
NC[C@H]1CC[C@H](CN(C[C@H]2Cc3ccccc3CN2)[C@H]2CCCc3cccnc32)CC1	True
Cc1ccc(C)c(OCCCC(C)(C)C(=O)O[C@@H]2O[C@H](C(=O)O)[C@@H](O)[C@H](O)[C@H]2O)c1	False
NC(=O)[C@@H]1C[C@H](F)CN1Cc1ccc(OCc2cccc(F)c2)cc1	False
Cc1c(C[C@@H](C)C(=O)NC2=C(C(=O)O)CCCC2)cnn1-c1ccc(O)cc1	False
N#Cc1ccc([C@@H]2[C@@H]3CC[C@@H](C[C@@H]3O)N2S(=O)(=O)c2ccc(Cl)cc2)cn1	False
CC(C)(O)c1ccc(-c2cccc(N(CC34CCC(c5noc(C(C)(C)F)n5)(CC3)CC4)C(=O)[C@H]3C[C@](O)(C(F)(F)F)C3)c2)cc1	False
COc1ccc(CCN(C)CCNC(=O)c2ccccc2NC(=O)c2cnc3ccccc3c2)cc1OC	True
C[C@H](CN[C@@H](C(=O)Nc1ccc(-c2cnn(C)c2)cn1)c1ccccc1)c1ccc(C#N)cc1	True
Cc1ccc2c3c(ccc2n1)OC[C@H](CN1CCN(c2ccc4cc(C#N)ccc4n2)CC1)O3	False
O=C(CCc1nc(-c2ccc(O)cn2)no1)Nc1ccccc1C(=O)O	False
O=C(O)CCNC(=O)c1ccc(Cn2nc(-c3cc(Cl)cc(Cl)c3)cc2-c2ccc(OC(F)(F)F)cc2)cc1	False
Cn1c(=O)c2c(cc(N3CCC[C@@](C)(N)C3)n2Cc2cc(F)ccc2C#N)n(C)c1=O	False

###

Field: IC50. System: Cytochrome P450 2C8 (Homo sapiens, UniProt P10632). Provenance: assorted publications.
- test.target: Cytochrome P450 2C8 (Homo sapiens, UniProt P10632)
- Sequence (P10632 whole entry): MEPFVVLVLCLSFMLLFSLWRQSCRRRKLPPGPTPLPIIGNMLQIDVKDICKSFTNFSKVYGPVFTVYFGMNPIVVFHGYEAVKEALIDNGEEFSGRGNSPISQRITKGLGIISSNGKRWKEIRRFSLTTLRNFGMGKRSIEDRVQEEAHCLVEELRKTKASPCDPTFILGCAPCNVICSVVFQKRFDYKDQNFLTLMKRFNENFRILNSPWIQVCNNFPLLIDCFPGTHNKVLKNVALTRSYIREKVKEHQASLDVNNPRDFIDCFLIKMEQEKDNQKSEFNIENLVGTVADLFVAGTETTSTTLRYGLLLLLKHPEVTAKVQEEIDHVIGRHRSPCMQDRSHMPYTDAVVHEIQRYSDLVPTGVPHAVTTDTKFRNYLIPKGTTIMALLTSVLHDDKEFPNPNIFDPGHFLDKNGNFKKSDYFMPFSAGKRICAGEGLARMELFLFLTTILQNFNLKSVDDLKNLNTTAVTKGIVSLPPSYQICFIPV
measured.metric: IC50

molecular.string	result
N#CCCN1C(=O)CC[C@H]1C(=O)N1CC[C@@]2(S(=O)(=O)c3ccc(F)cc3)c3ccc(C(F)(C(F)(F)F)C(F)(F)F)nc3CC[C@@H]12	> 20 µM
COCCCO[C@H]1CN(c2ccc(O[C@@H]3CCN(c4cc(OC)ncc4Cl)C[C@H]3C)cc2)[C@@H](CC(=O)O)[C@@H]1C	8.3 µM
Cc1cc2cc(N=C(NC#N)N[C@H]3CCCCN(CC(=O)N4CCCC4)C3=O)ccc2o1	> 40 µM
CC(=O)N1CCN(c2cc(-c3ccccc3O)nnc2N)C[C@H]1C	> 10 µM
O=C(Nc1ccc(C[C@@H]2CC[C@H]([C@H](O)c3ccccc3)N2)cc1)[C@@H]1CCc2nccc(=O)n21	> 100 µM
CCOc1cccnc1Oc1cncc(-c2ncc(C(=O)N[C@H]3CCOC3)cn2)c1	> 100 µM
Cc1cc([C@H]2C[C@H]3[C@@H](C)SC(N)=N[C@@]3(c3ccc(F)cc3F)CO2)on1	> 30 µM
O=C(c1cccc(F)c1)N1CCc2oc(-c3ccc(F)cn3)nc2C1	> 50 µM

###

- test.target: Cytochrome P450 2C8 (Homo sapiens, UniProt P10632)
- Sequence (P10632 whole entry): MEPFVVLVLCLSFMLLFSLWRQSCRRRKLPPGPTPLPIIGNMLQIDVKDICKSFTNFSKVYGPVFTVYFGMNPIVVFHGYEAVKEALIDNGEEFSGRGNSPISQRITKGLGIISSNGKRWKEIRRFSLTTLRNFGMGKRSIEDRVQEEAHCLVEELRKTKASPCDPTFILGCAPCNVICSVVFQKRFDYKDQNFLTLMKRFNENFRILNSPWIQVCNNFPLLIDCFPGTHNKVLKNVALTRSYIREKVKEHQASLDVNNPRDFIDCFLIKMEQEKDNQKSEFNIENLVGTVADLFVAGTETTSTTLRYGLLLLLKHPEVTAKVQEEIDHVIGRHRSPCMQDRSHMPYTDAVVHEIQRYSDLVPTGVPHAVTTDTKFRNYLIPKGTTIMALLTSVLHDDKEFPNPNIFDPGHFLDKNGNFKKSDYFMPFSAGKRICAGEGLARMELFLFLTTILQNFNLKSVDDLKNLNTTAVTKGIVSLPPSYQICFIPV
pIC50: −log10 of the molar value.
Here's a roundup of pIC50 values tested on Cytochrome P450 2C8 (Homo sapiens, UniProt P10632), taken from various published works.
measured.metric: pIC50

compound	result
COc1nc(C2=NOC[C@H](c3cc4ccccc4o3)N2)ccc1-n1cnc(C)c1	< 4.60
N#CCC(=O)N1CC2(CCC(c3cccc4nc(NC(=O)C5CC5)nn34)CC2)C1	< 4.00
CCCN(C)C(=O)OCc1c(-c2ccc(O[C@H]3CCC[C@H](C(=O)O)C3)c(C)n2)nnn1C	< 4.40
Cc1cc(CN2CCC2)cc(F)c1-c1cc2c(-c3cnn(C)c3)n[nH]c2cn1	< 4.82
COc1cc(F)ccc1-c1ncnc(Nc2cccc(CS(C)(=N)=O)c2)n1 (stereo not given)	< 4.70
NCC#Cc1cnccc1-c1ccco1	5.12
Cl.Cl.Cl.NCc1ccc(-c2cnccc2-c2cccnc2)o1	< 4.60
Cn1cc(-c2ccc3c(c2F)CCN3C(=O)Cc2cccc(C(F)(F)F)n2)c2c(N)ncnc21	5.23
COc1ccc(COc2cnn(CC(=O)c3ccc(CN(C)C)cc3C)c(=O)c2)nc1	< 4.30
O=C(NC[C@@H](Cc1ccccc1)N1CCC(O)(C(F)(F)F)CC1)C1(c2ccc(Cl)cc2)CCCC1	4.93
